Reported relative viability by item:
# Test system: NCI-H1944
# experiment: relative viability (nuclei count vs DMSO), 5 days (fraction); higher = more cells survive
# measurement-conditions: first compound 0.8 µM

Use these answered entries as a reference point.
molecule	readout-kind	result
Nc1cccc2c1CN(C1CCC(=O)NC1=O)C2=O (stereo not drawn) [Lenalidomide] + COc1cccc2cc(-c3nc([C@H]4CC[C@H](C(=O)O)CC4)n4ncnc(N)c34)[nH]c12 [OSI-027] (partner 0.5 µM)	relative viability	0.372
Nc1cccc2c1CN(C1CCC(=O)NC1=O)C2=O (stereo not drawn) [Lenalidomide] + CC1(C)CCC(c2ccc(Cl)cc2)=C(CN2CCN(c3ccc(C(=O)NS(=O)(=O)c4ccc(N[C@H](CCN5CCOCC5)CSc5ccccc5)c(S(=O)(=O)C(F)(F)F)c4)cc3)CC2)C1 [Navitoclax] (partner 0.5 µM)	relative viability	1.08

Alright, here's another molecule for you.
API: value(readout= relative viability, system= NCI-H1944, query= Nc1cccc2c1CN(C1CCC(=O)NC1=O)C2=O (stereo not drawn) [Lenalidomide] + CS(=O)(=O)N1CCN(Cc2cc3nc(-c4cccc5[nH]ncc45)nc(N4CCOCC4)c3s2)CC1 [Pictilisib] (partner 1 µM) ) 0.309
